Kd overview
target: TYK2 JH2 (Homo sapiens, UniProt P29597); construct: purchased DiscoverX (KINOMEscan KdELECT service); host or cells: E. coli BL21-derived (T7 phage display) or HEK-293; test: TYK2 JH2 binding assay (KINOMEscan KdELECT competitive binding); settings: TYK2 JH2 domain, KINOMEscan KdELECT (Assay A); read-out: Biochemical TYK2_JH2_Kd
Sequence (P29597 589-875 limits assumed): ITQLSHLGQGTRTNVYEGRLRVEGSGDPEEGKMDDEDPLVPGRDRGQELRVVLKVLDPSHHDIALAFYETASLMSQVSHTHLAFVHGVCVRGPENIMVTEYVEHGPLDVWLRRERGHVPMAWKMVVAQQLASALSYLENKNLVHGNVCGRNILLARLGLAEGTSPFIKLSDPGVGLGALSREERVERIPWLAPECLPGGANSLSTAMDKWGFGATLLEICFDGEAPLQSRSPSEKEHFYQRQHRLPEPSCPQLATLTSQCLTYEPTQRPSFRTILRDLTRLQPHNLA

Here's what some known entries look like.
{"mol": "CNc1ncc(-c2c[nH]c3ncccc23)c2cc(NC(=O)C3CC3)ncc12", "Kd": "≤ 100 nM"}
{"mol": "C#Cc1cnc(NC)c2cnc(NC(=O)C3CC3)cc12", "Kd": "≤ 100 nM"}
{"mol": "CNc1ncc(-c2ncccc2OC)c2cc(Nc3ccccn3)ncc12", "Kd": "100 to 1000 nM"}
{"mol": "CNc1ncc(-c2nc3c(OC)cccc3o2)c2cc(NC(=O)C3CC3)ncc12", "Kd": "≤ 100 nM"}
{"mol": "CNc1ncc(-c2nc3cc(F)ccn3n2)c2cc(NC(=O)C3CC3)ncc12", "Kd": "≤ 100 nM"}

Q: # lookup: Kd of "CNc1ncc(/C=C/c2ccc(OC)cc2)c2cc(NC(=O)C3CC3)ncc12"
A: ≤ 100 nM

Q: // query: "CNc1ncc(-c2ccn(Cc3ccccc3)n2)c2cc(NC(=O)C3CC3)ncc12"
A: ≤ 100 nM

Q: Next record, please: "CNc1ncc(Cc2ccc(OC)cc2)c2cc(NC(=O)C3CC3)ncc12"
A: 100 to 1000 nM

Q: Ok, now "CNc1ncc(-c2ccn(CC#N)n2)c2cc(NC(=O)C3CC3)ncc12"
A: ≤ 100 nM

Q: Okay, and "CNc1ncc(-c2ccc(OC(F)F)cc2)c2cc(NC(=O)C3CC3)ncc12" ?
A: ≤ 100 nM

Q: Query "CNc1ncc(-c2cc(Br)no2)c2cc(NC(=O)C3CC3)ncc12" next
A: ≤ 100 nM
